Here's what we have: pIC50 numbers for UniProt:P49840.
Sequence (P49840 whole entry): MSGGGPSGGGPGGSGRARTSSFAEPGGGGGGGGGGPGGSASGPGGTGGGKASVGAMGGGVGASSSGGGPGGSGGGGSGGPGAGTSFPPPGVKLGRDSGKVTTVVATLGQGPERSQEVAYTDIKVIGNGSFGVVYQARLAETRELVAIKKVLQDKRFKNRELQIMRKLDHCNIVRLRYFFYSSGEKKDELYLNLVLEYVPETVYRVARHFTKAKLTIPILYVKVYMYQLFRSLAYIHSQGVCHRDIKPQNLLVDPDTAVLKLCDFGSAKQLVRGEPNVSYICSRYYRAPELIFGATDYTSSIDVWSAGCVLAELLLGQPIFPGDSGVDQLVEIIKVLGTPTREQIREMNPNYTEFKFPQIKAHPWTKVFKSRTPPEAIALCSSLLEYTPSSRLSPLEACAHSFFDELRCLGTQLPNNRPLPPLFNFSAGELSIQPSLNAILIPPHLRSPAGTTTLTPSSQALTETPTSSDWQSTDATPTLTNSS
pIC50: −log10 of the molar value.

{"Compound": "CC[C@@]1(c2cccc(Br)c2)C2=CN=NC2NC2=C1C(=O)C[C@@H](C)C2 (stereo not given in full)", "Value Measured": "< 5.30"}
{"Compound": "CCC1(c2ccccc2)C2=C(N=NC2)NC(C)=C1C(C)=O (stereo not given)", "Value Measured": "< 5.30"}
{"Compound": "CCC1(c2cccc(N(C)C(=O)C3CCOCC3)c2)C2=CN=NC2NC2=C1C(=O)CC(C)(C)C2 (stereo not given)", "Value Measured": "> 7.00"}
{"Compound": "CC[C@]1(c2cccc(-c3cc(C)nn3C)c2)C2=C(N=NC2)NC2=C1C(=O)C(C)(C)C2", "Value Measured": "< 5.30"}

# evaluate next
-- ask Endpoint output: pIC50 of "CC[C@@]1(c2cccc(-c3cc(C)nn3C)c2)C2=C(N=NC2)NC2=C1C(=O)C(C)(C)C2" . Value?
-- reply 6.00 to 7.00
